The origin of these recorded values is the supplement of paper PMC12667976.

B1: library; numbered along this chain (parent)
chain: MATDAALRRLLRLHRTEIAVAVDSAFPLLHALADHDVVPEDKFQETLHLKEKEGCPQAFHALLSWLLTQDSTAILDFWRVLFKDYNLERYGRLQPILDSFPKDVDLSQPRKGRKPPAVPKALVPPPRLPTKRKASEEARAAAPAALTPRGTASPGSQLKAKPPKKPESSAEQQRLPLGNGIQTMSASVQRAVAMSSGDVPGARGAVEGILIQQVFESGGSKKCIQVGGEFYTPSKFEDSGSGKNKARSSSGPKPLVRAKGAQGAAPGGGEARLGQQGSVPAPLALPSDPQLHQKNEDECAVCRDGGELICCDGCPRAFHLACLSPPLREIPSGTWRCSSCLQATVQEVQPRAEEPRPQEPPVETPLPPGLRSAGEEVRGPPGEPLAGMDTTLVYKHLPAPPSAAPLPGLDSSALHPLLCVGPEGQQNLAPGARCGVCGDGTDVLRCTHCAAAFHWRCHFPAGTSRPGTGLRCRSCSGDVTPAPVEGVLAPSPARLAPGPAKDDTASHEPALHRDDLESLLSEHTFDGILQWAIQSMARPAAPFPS

Variants of: B1
Assay: AIRE transcriptional activation functional score (insulin promoter-GFP; nonsense median 0, synonymous median 1) (normalised score); higher = higher AIRE activity (more reporter activation)
Conditions: with insulin promoter-GFP reporter in HEK293
observable: AIRE transcriptional activation functional score
Keep the answer to the number alone.

Solved cases below.
Entry under test: R89Q . Its AIRE transcriptional activation functional score was 0.475

Notebook: R316S , AIRE transcriptional activation functional score read as 1.19

Item: G467R | AIRE transcriptional activation functional score: 1.01

New cases:
AIRE transcriptional activation functional score reported for this variant D515P : 0.67

The variant listed as R371Y shows AIRE transcriptional activation functional score equal to 1.39

AIRE transcriptional activation functional score recorded for this variant, F543N , is 0.535

Item: D238F | AIRE transcriptional activation functional score: 1.04

So, D23S ? Its AIRE transcriptional activation functional score was 0.041
